Recorded values, source the supplement of paper PMC9112550.

# Tested on: Escherichia coli TOP10;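 also: peptides expressed intracellularly from a pBAD plasmid library in pooled LB shake-flask culture, induced with 0.3% L-arabinose, DNA abundance read by NGS, three biological replicates, DESeq2 with apeglm shrinkage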
# assay: shrunken log2 fold change of peptide-encoding DNA abundance (4.5 h post-induction vs induction); higher = less antimicrobial activity (less host growth inhibition)
# run parameters: time post-induction: 4.5 h; library: site-saturation at positions 5, 18, 19, 20

>  <entry sequence>
RRIRARPPRLPRPRPRPAEGPRP

>  <shrunken log2 fold change>
0.818

$$$$
>  <entry sequence>
RRIRWRPPRLPRPRPRPEKRPRP

>  <shrunken log2 fold change>
0.028

$$$$
>  <entry sequence>
RRIRVRPPRLPRPRPRPTMVPRP

>  <shrunken log2 fold change>
0.0376

$$$$
>  <entry sequence>
RRIRSRPPRLPRPRPRPLFNPRP

>  <shrunken log2 fold change>
-0.632

$$$$
>  <entry sequence>
RRIRFRPPRLPRPRPRPIFCPRP

>  <shrunken log2 fold change>
-0.155

$$$$
>  <entry sequence>
RRIRRRPPRLPRPRPRPLESPRP

>  <shrunken log2 fold change>
0.0173

$$$$
>  <entry sequence>
RRIRGRPPRLPRPRPRPYLYPRP

>  <shrunken log2 fold change>
-0.215

$$$$
>  <entry sequence>
RRIRKRPPRLPRPRPRPADHPRP

>  <shrunken log2 fold change>
0.111

$$$$
>  <entry sequence>
RRIRARPPRLPRPRPRPNVKPRP

>  <shrunken log2 fold change>
-0.167

$$$$
>  <entry sequence>
RRIRVRPPRLPRPRPRPIWEPRP

>  <shrunken log2 fold change>
-0.00136

$$$$
>  <entry sequence>
RRIRVRPPRLPRPRPRPQTIPRP

>  <shrunken log2 fold change>
-0.127

$$$$
>  <entry sequence>
RRIRMRPPRLPRPRPRPKTLPRP

>  <shrunken log2 fold change>
0.687

$$$$
>  <entry sequence>
RRIRHRPPRLPRPRPRPPHIPRP

>  <shrunken log2 fold change>
-0.287

$$$$
>  <entry sequence>
RRIRLRPPRLPRPRPRPQKIPRP

>  <shrunken log2 fold change>
0.0459

$$$$
>  <entry sequence>
RRIRARPPRLPRPRPRPMVEPRP

>  <shrunken log2 fold change>
0.0234

$$$$
>  <entry sequence>
RRIRGRPPRLPRPRPRPKAKPRP

>  <shrunken log2 fold change>
0.017

$$$$
>  <entry sequence>
RRIRHRPPRLPRPRPRPGWVPRP

>  <shrunken log2 fold change>
0.0965

$$$$
>  <entry sequence>
RRIRERPPRLPRPRPRPWDLPRP

>  <shrunken log2 fold change>
-0.164

$$$$
>  <entry sequence>
RRIRSRPPRLPRPRPRPSDSPRP

>  <shrunken log2 fold change>
-0.612

$$$$
>  <entry sequence>
RRIRGRPPRLPRPRPRPADHPRP

>  <shrunken log2 fold change>
0.625

$$$$
>  <entry sequence>
RRIRDRPPRLPRPRPRPMHLPRP

>  <shrunken log2 fold change>
-0.339

$$$$
>  <entry sequence>
RRIRTRPPRLPRPRPRPSMEPRP

>  <shrunken log2 fold change>
-0.136

$$$$
>  <entry sequence>
RRIRWRPPRLPRPRPRPLFGPRP

>  <shrunken log2 fold change>
0.352

$$$$
>  <entry sequence>
RRIRQRPPRLPRPRPRPPHDPRP

>  <shrunken log2 fold change>
1.12

$$$$
>  <entry sequence>
RRIRPRPPRLPRPRPRPVLYPRP

>  <shrunken log2 fold change>
-0.335

$$$$
>  <entry sequence>
RRIRYRPPRLPRPRPRPSCQPRP

>  <shrunken log2 fold change>
-0.296

$$$$
>  <entry sequence>
RRIRWRPPRLPRPRPRPKRIPRP

>  <shrunken log2 fold change>
0.364

$$$$
>  <entry sequence>
RRIRQRPPRLPRPRPRPDGHPRP

>  <shrunken log2 fold change>
-0.0936

$$$$
>  <entry sequence>
RRIRCRPPRLPRPRPRPRPVPRP

>  <shrunken log2 fold change>
0.766

$$$$
>  <entry sequence>
RRIRDRPPRLPRPRPRPMVKPRP

>  <shrunken log2 fold change>
0.115

$$$$
>  <entry sequence>
RRIRTRPPRLPRPRPRPTLIPRP

>  <shrunken log2 fold change>
-0.108

$$$$
>  <entry sequence>
RRIRQRPPRLPRPRPRPWHAPRP

>  <shrunken log2 fold change>
-0.106

$$$$
>  <entry sequence>
RRIRCRPPRLPRPRPRPDYYPRP

>  <shrunken log2 fold change>
-0.231

$$$$
>  <entry sequence>
RRIRCRPPRLPRPRPRPDCIPRP

>  <shrunken log2 fold change>
-0.027

$$$$
>  <entry sequence>
RRIRHRPPRLPRPRPRPPNKPRP

>  <shrunken log2 fold change>
-0.171

$$$$
>  <entry sequence>
RRIRARPPRLPRPRPRPNFKPRP

>  <shrunken log2 fold change>
0.0298

$$$$
>  <entry sequence>
RRIRTRPPRLPRPRPRPGQPPRP

>  <shrunken log2 fold change>
0.161

$$$$
>  <entry sequence>
RRIRRRPPRLPRPRPRPSNKPRP

>  <shrunken log2 fold change>
-0.101

$$$$
>  <entry sequence>
RRIRYRPPRLPRPRPRPQVMPRP

>  <shrunken log2 fold change>
-0.0105

$$$$
>  <entry sequence>
RRIRMRPPRLPRPRPRPAQKPRP

>  <shrunken log2 fold change>
1.2

$$$$
>  <entry sequence>
RRIRCRPPRLPRPRPRPAKSPRP

>  <shrunken log2 fold change>
0.448

$$$$
>  <entry sequence>
RRIRARPPRLPRPRPRPPMLPRP

>  <shrunken log2 fold change>
0.805

$$$$
>  <entry sequence>
RRIRERPPRLPRPRPRPMQDPRP

>  <shrunken log2 fold change>
0.306

$$$$
>  <entry sequence>
RRIRDRPPRLPRPRPRPCNNPRP

>  <shrunken log2 fold change>
-0.931

$$$$
>  <entry sequence>
RRIRFRPPRLPRPRPRPRPEPRP

>  <shrunken log2 fold change>
0.477

$$$$
>  <entry sequence>
RRIRPRPPRLPRPRPRPIAPPRP

>  <shrunken log2 fold change>
0.265

$$$$
>  <entry sequence>
RRIRPRPPRLPRPRPRPEFVPRP

>  <shrunken log2 fold change>
-0.0384

$$$$
>  <entry sequence>
RRIRCRPPRLPRPRPRPLELPRP

>  <shrunken log2 fold change>
0.172

$$$$
>  <entry sequence>
RRIRIRPPRLPRPRPRPCHCPRP

>  <shrunken log2 fold change>
0.0274

$$$$
>  <entry sequence>
RRIRERPPRLPRPRPRPFSSPRP

>  <shrunken log2 fold change>
-0.0152

$$$$
>  <entry sequence>
RRIRLRPPRLPRPRPRPFPTPRP

>  <shrunken log2 fold change>
-0.158

$$$$
>  <entry sequence>
RRIRLRPPRLPRPRPRPKCYPRP

>  <shrunken log2 fold change>
-0.414

$$$$
>  <entry sequence>
RRIRVRPPRLPRPRPRPVCCPRP

>  <shrunken log2 fold change>
0.0608

$$$$
>  <entry sequence>
RRIRRRPPRLPRPRPRPQVTPRP

>  <shrunken log2 fold change>
-0.0275

$$$$
>  <entry sequence>
RRIRWRPPRLPRPRPRPAPIPRP

>  <shrunken log2 fold change>
0.319

$$$$
>  <entry sequence>
RRIRWRPPRLPRPRPRPFINPRP

>  <shrunken log2 fold change>
-0.635

$$$$
>  <entry sequence>
RRIRCRPPRLPRPRPRPYAQPRP

>  <shrunken log2 fold change>
-0.227

$$$$
>  <entry sequence>
RRIRIRPPRLPRPRPRPVKMPRP

>  <shrunken log2 fold change>
-0.173

$$$$
>  <entry sequence>
RRIRQRPPRLPRPRPRPFTLPRP

>  <shrunken log2 fold change>
-0.0549

$$$$
>  <entry sequence>
RRIRFRPPRLPRPRPRPPPCPRP

>  <shrunken log2 fold change>
0.898

$$$$
>  <entry sequence>
RRIRHRPPRLPRPRPRPRAIPRP

>  <shrunken log2 fold change>
0.0852

$$$$
>  <entry sequence>
RRIRPRPPRLPRPRPRPVWTPRP

>  <shrunken log2 fold change>
0.224

$$$$
>  <entry sequence>
RRIRCRPPRLPRPRPRPSLVPRP

>  <shrunken log2 fold change>
-0.399

$$$$
